B1: HDV Ribozyme (parent)
chain: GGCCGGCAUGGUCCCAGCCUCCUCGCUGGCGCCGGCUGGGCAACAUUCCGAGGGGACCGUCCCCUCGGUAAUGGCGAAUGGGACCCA

variants of: B1; assay: self-cleavage, relative activity (ratio to wild type); higher = more cleavage; co-transcriptional
The entries below are paired with their reported self-cleavage.
Just the number, please, no unit attached.

Example results:
INSERT INTO assay_data (mutation_list, readout_type, value_measured) VALUES
  ('C32U', 'self-cleavage', 0.881),
  ('C15A C75A', 'self-cleavage', 0.115),
  ('U65G A78G', 'self-cleavage', 0.957);

According to the records, this variant C48G G82U displays self-cleavage of 0.284

Recorded result, U47A C63U , self-cleavage: 1

self-cleavage for C13A G28U is 0.172

// self-cleavage value for C33U G35U : 0.383

U23G A43U has a reported self-cleavage of 0.219

Entry C3U A78U , self-cleavage reported as 0.117

The reported value for U27C C48U in terms of self-cleavage is 0.604

Noted for U23A C36U : its self-cleavage reads 0.671

Form field self-cleavage, entry C61G G68U : 0.964

Reported self-cleavage ( A70U A77C ) = 0.0978

Looking up C57G C66U , I see its self-cleavage listed as 0.848

Looking up G40A G82U , I found its self-cleavage recorded as 0.198

// self-cleavage lookup, variant = C7A C33A , result: 0.0639
